- experiment_notes: self-splicing fitness, log relative to wild type (ln ratio); higher = more splicing; Tetrahymena group I intron in knt gene, E. coli kanamycin selection, DiMSum; sequences stand for … in CUCUCU…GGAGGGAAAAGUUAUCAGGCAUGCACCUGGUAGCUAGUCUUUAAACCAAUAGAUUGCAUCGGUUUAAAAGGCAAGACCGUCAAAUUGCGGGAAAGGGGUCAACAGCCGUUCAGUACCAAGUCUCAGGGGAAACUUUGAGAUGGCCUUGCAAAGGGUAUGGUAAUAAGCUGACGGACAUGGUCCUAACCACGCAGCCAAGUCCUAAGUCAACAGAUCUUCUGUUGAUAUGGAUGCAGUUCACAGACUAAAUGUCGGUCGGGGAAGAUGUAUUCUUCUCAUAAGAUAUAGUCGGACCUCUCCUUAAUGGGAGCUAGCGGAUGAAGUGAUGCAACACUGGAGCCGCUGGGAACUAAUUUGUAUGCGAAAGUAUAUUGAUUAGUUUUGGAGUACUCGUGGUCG;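 further: selection with 25 µg/mL kanamycin versus none on LB agar overnight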
- protocol_conditions: 30 °C
Criterion: self-splicing fitness (ln) meeting or surpassing -3. Met: condition met. Not met: condition not met.

Reported self-splicing fitness (ln) reaches at least -3 for AUGGAGCAAUAUUACGGUGA ?
condition met

Would you say ACUGAGCAAUAUUACGCCGC shows self-splicing fitness (ln) at minimum -3?
condition not met

Please check the record CACAAGCAAUAUUACGUCUC and state if its self-splicing fitness (ln) is at or above -3.
condition not met

Say whether AAUGAGCAAUAUUACGCACG shows self-splicing fitness (ln) of -3 or more.
condition not met

Evaluate CGAUAGCAAUAUUACGUGUG : self-splicing fitness (ln) at minimum -3?
condition met

Is it the case that GUAUAGCAAUAUUACGGAAC has self-splicing fitness (ln) reaching or exceeding -3?
condition not met

Determine whether this sequence has self-splicing fitness (ln) no lower than -3: ACAGAGCAAUAUUACGGGAU
condition not met

self-splicing fitness (ln) >= -3 for UCAUAGCAAUAUUACGGAGG ?
condition not met

Decide: is the reported value of self-splicing fitness (ln) for UUGCAGCAAUAUUACGACAG equal to or greater than -3?
condition met

Test whether the sequence UUUUAGCAAUAUUACGCGCA records self-splicing fitness (ln) of -3 or higher.
condition met

Can CGCAAGCAAUAUUACGGCGC be said to have self-splicing fitness (ln) at or above -3?
condition met

# bool: self-splicing fitness (ln) of UGCAAGCAAUAUUACGCAGC >= -3
condition not met

Say whether CAGCAGCAAUAUUACGAAGC shows self-splicing fitness (ln) of -3 or more.
condition not met

In plain terms: is recorded self-splicing fitness (ln) at least -3 for AGUGAGCAAUAUUACGUAAC ?
condition not met

hey, is self-splicing fitness (ln) for this one >= -3? CAACAGCAAUAUUACGAGCU
condition not met

Reported self-splicing fitness (ln) reaches at least -3 for GGAAAGCAAUAUUACGCUUC ?
condition met

* * *

- experiment_notes: self-splicing fitness, log relative to wild type (ln ratio); higher = more splicing; Tetrahymena group I intron in knt gene, E. coli kanamycin selection, DiMSum; sequences stand for … in CUCUCU…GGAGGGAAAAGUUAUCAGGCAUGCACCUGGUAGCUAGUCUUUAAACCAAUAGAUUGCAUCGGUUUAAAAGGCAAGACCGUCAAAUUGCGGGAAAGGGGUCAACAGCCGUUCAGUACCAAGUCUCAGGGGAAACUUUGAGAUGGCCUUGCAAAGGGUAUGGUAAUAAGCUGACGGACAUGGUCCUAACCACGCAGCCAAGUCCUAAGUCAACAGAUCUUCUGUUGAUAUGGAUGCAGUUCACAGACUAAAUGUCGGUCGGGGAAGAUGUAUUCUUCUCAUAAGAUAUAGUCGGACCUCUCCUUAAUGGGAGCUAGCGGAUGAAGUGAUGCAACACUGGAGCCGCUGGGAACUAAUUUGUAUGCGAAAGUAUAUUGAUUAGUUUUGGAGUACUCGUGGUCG
- protocol_conditions: 30 °C
experimental_readout: self-splicing fitness (ln)
Form: value (number only, do not type unit).

Requested field: self-splicing fitness (ln). Item: UGCCAGCAAUAUUACGUAAC
-2.39

Returns the measured self-splicing fitness (ln) for the input sequence. Input: UAUGAGCAAUAUUACGUGAA
-2.98

Record request: self-splicing fitness (ln) value, item ACUCAGCAAUAUUACGACUU
-0.301

Param item = GCAUAGCAAUAUUACGCGUA ; retrieve measured self-splicing fitness (ln).
-1.43

Value lookup for self-splicing fitness (ln); key = AAGGAGCAAUAUUACGGCGG
-4.57

Item UAGUAGCAAUAUUACGCAUC has what recorded self-splicing fitness (ln)?
-2.64

Which self-splicing fitness (ln) is listed for CACAAGCAAUAUUACGCGAA ?
-3.43

May I ask what self-splicing fitness (ln) has been recorded for GUCAAGCAAUAUUACGGUGA ?
-2.82

Given the sequence CUUGAGCAAUAUUACGGGGG , what is its reported self-splicing fitness (ln)?
-2.81

# self-splicing fitness (ln) lookup, item AAUUAGCAAUAUUACGACUG
-1.11

Could you tell me which self-splicing fitness (ln) is on file for AACUAGCAAUAUUACGUGAA ?
-1.86

# input sequence: UAAUAGCAAUAUUACGUUAU ; wanted: its self-splicing fitness (ln)
-2.86

Query: self-splicing fitness (ln); subject: UAACAGCAAUAUUACGAGAC
-4.18

Any idea what its self-splicing fitness (ln) is? The sequence is UCCCAGCAAUAUUACGUUUC
-4.35

Dear colleague, I am looking for the recorded self-splicing fitness (ln) of the following sequence: AUAGAGCAAUAUUACGGUUA
-1.49

Requested read-out: self-splicing fitness (ln). Entry: CUAGAGCAAUAUUACGCGUG
-0.446

Param item = CCUUAGCAAUAUUACGUUAU ; retrieve measured self-splicing fitness (ln).
-2.42

Can you look up the measured self-splicing fitness (ln) of GAGUAGCAAUAUUACGGACC for me?
-1.29

# lookup: self-splicing fitness (ln) of CUCAAGCAAUAUUACGGAGA
-2.83

Which self-splicing fitness (ln) value belongs to GAACAGCAAUAUUACGAACC ?
-1.6

Consider the sequence shown here: GGCCAGCAAUAUUACGACAU What is its recorded self-splicing fitness (ln)?
-1.21

Suppose we examine the sequence CAAGAGCAAUAUUACGCACC ; what self-splicing fitness (ln) value has been reported?
-3.75

Reported self-splicing fitness (ln) for ACGAAGCAAUAUUACGCGCG : what is it?
-0.867

Looking for the measured self-splicing fitness (ln) of UACAAGCAAUAUUACGCAGU , can you help?
-3.96

Record request: self-splicing fitness (ln) value, item GGGUAGCAAUAUUACGCGAU
-3.42

Query (sequence): GUCGAGCAAUAUUACGCGUG ; field requested: self-splicing fitness (ln)
-1.25

Which value of self-splicing fitness (ln) has been reported for CGCAAGCAAUAUUACGUAGC in the records?
-3.3

# input sequence: AGUAAGCAAUAUUACGUCUG ; wanted: its self-splicing fitness (ln)
-3.21

Please look up its self-splicing fitness (ln): CGUUAGCAAUAUUACGAGAU
-2.01

I have this sequence here, CGGGAGCAAUAUUACGGGCG , and I need its recorded self-splicing fitness (ln).
-2.44

May I ask what self-splicing fitness (ln) has been recorded for GAAUAGCAAUAUUACGGAUC ?
-0.118

Which measured self-splicing fitness (ln) value corresponds to GCUGAGCAAUAUUACGACGU ?
-1.45

Report self-splicing fitness (ln) for UCAGAGCAAUAUUACGGAAU please.
-2.94

Query: self-splicing fitness (ln); subject: CCGGAGCAAUAUUACGGGUG
-1.61

Which measured self-splicing fitness (ln) value corresponds to CCGUAGCAAUAUUACGUCGU ?
-3.2

Given the sequence GUACAGCAAUAUUACGAGCA , what is its reported self-splicing fitness (ln)?
-1.59

What value of measured self-splicing fitness (ln) is listed for ACGGAGCAAUAUUACGAGAG ?
-2.06

Entry GACGAGCAAUAUUACGGCGA has what self-splicing fitness (ln)?
-2.12

Record request: self-splicing fitness (ln) value, item ACCAAGCAAUAUUACGAGUC
-3.65

Which self-splicing fitness (ln) value belongs to GCUUAGCAAUAUUACGUCCU ?
-1.01

What does the data say about its self-splicing fitness (ln)? Entry: CGCGAGCAAUAUUACGUGCC
-3.8

Requested read-out: self-splicing fitness (ln). Entry: CUACAGCAAUAUUACGACCA
-2.7

Which self-splicing fitness (ln) value belongs to GAGCAGCAAUAUUACGGUAA ?
-1.95

I have this sequence here, UUACAGCAAUAUUACGAGAC , and I need its recorded self-splicing fitness (ln).
-3.02

Endpoint output: self-splicing fitness (ln) of AGAAAGCAAUAUUACGUCCU . Value?
-0.0571

Given GGGAAGCAAUAUUACGGAUG , state its recorded self-splicing fitness (ln).
-3.55

Which self-splicing fitness (ln) is listed for UGGCAGCAAUAUUACGACUG ?
-1.01

Would you kindly share the measured self-splicing fitness (ln) for CGUGAGCAAUAUUACGACCG ?
-3.79

Requested field: self-splicing fitness (ln). Item: CUGUAGCAAUAUUACGACAU
-1.53

Reported self-splicing fitness (ln) for GGUGAGCAAUAUUACGUUGC : what is it?
-3.27

For ACGAAGCAAUAUUACGUGGA , what is its reported self-splicing fitness (ln)?
-2.7

Entry GGCGAGCAAUAUUACGAACA : reported self-splicing fitness (ln) = ?
-1.16

Report self-splicing fitness (ln) for GGAGAGCAAUAUUACGAACC please.
-2.16

Find the recorded self-splicing fitness (ln) belonging to UCGCAGCAAUAUUACGCAUC and report it.
-2.52

Using the record for AAUUAGCAAUAUUACGCGGG , report its self-splicing fitness (ln).
-2.73

Name the reported self-splicing fitness (ln) value associated with the sequence CAAAAGCAAUAUUACGAGGA
-3.08

Entry AUACAGCAAUAUUACGUAAG has what self-splicing fitness (ln)?
-0.561

What value of self-splicing fitness (ln) has been reported for the following sequence? CUGGAGCAAUAUUACGCGGG
-3.62

Entry UCACAGCAAUAUUACGUUCC has what self-splicing fitness (ln)?
-3.38

Given the sequence GUUCAGCAAUAUUACGCCAG , what is its reported self-splicing fitness (ln)?
-2.06

Field request: self-splicing fitness (ln) | item: UAGCAGCAAUAUUACGACUU
-0.541

Need self-splicing fitness (ln), item AUACAGCAAUAUUACGCGAC
-1.87

Would you mind telling me what self-splicing fitness (ln) value was observed for CCACAGCAAUAUUACGGUGG ?
-4.51

Which self-splicing fitness (ln) value is on record for CAAAAGCAAUAUUACGACAA ?
-1.85

Endpoint output: self-splicing fitness (ln) of CCCAAGCAAUAUUACGGUCG . Value?
-2.3

What value of self-splicing fitness (ln) has been recorded for this entry: CUCGAGCAAUAUUACGAUAA
-2.16

Looking for the measured self-splicing fitness (ln) of AACGAGCAAUAUUACGGUCU , can you help?
-2.03
